target_system: Cytochrome P450 2C19 (Homo sapiens)
test: NVS_ADME_hCYP2C19: NovaScreen (NVS) CYP450-related Enzyme Activity (ADME) Assay for human CYP2C19 (AID 2283113);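 also: potency for inhibition seen as loss of fluorescent signal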
Records with an inconclusive call do not appear. Calls of active or inactive are those of the source. The calls were made as follows: active = hit-call score of the fitted dose curve at least 0.9, where 1 is the maximum; inconclusive = response in the unintended direction; inactive = score below 0.9.
Give AC50 for every item shown.

Data request, read-out AC50, for COP(=O)(OC)SCn1c(=O)oc2cc(Cl)cnc21
4.57 µM (active)

Data request, read-out AC50, for CCOP(=O)(OCC)Oc1cc(C)nc(C(C)C)n1
10 µM (active)

Data request, read-out AC50, for C=C(C)[C@H]1Cc2c(ccc3c2O[C@@H]2COc4cc(OC)c(OC)cc4[C@@H]2C3=O)O1
0.434 µM (active)

Data request, read-out AC50, for CCOP(=S)(OCC)Oc1ccc([N+](=O)[O-])cc1
0.21 µM (active)

Data request, read-out AC50, for CCCOCC(=Nc1ccc(Cl)cc1C(F)(F)F)n1ccnc1
0.16 µM (active)

Data request, read-out AC50, for CC[C@H](C)[C@H]1O[C@]2(C=C[C@@H]1C)C[C@@H]1C[C@@H](C/C=C(\C)[C@@H](O[C@H]3C[C@H](OC)[C@@H](O[C@H]4C[C@H](OC)[C@@H](NC)[C@H](C)O4)[C@H](C)O3)[C@@H](C)/C=C/C=C3\CO[C@@H]4[C@H](O)C(C)=C[C@@H](C(=O)O1)[C@]34O)O2
10 µM (active)

Data request, read-out AC50, for CC(COc1ccc(Oc2ccccc2)cc1)Oc1ccccn1 (stereo unspecified)
13.7 µM (active)

Data request, read-out AC50, for CCCCOC(=O)[C@@H](C)Oc1ccc(Oc2ccc(C#N)cc2F)cc1
10 µM (active)

Data request, read-out AC50, for CC(=NC#N)N(C)Cc1ccc(Cl)nc1
10 µM (active)

Data request, read-out AC50, for CCc1cccc(CC)c1N(COC)C(=O)CCl
6.1 µM (active)

Data request, read-out AC50, for CC(C)=CC1C(C(=O)OCN2C(=O)C3=C(CCCC3)C2=O)C1(C)C (stereo unspecified)
6.88 µM (active)

----------
Read-out: Cytochrome P450 3A4 (Homo sapiens)
test: CLD_CYP3A4_48hr: CellzDirect (CLD) Gene Expression Assay for xenobiotic metabolism (CYP3A4) at 48 hours (AID 2283698)
Inconclusive results are not listed. Active and inactive are the calls of the source. How the source made its calls: active means hit-call score of the fitted dose curve at least 0.9, where 1 is the maximum; inconclusive means response in the unintended direction; inactive means score below 0.9.
readout_label: AC50

# count of solved cases: 10
CN(C)NC(=O)CCC(=O)O: inactive
FC(F)C(F)(F)OCC(Cn1cncn1)c1ccc(Cl)cc1Cl (stereo not given): 1.89 µM (active)
CC(C)[C@H](C(=O)O[C@H](C#N)c1cccc(Oc2ccccc2)c1)c1ccc(Cl)cc1: 20 µM (active)
CCOP(=O)(OCC)Oc1cc(C)nc(C(C)C)n1: 20 µM (active)
Cc1cc(C2CC2)nc(Nc2ccccc2)n1: inactive
C#CC(C)(C)NC(=O)c1cc(Cl)cc(Cl)c1: inactive
CC(COc1ccc(Oc2ccccc2)cc1)Oc1ccccn1 (stereo not given): 3.97 µM (active)
O=[N+]([O-])c1cc(C(F)(F)F)c(Cl)c([N+](=O)[O-])c1Nc1ncc(C(F)(F)F)cc1Cl: inactive
C[Si](Cn1cncn1)(c1ccc(F)cc1)c1ccc(F)cc1: 0.536 µM (active)
CCCCN(CC)c1c([N+](=O)[O-])cc(C(F)(F)F)cc1[N+](=O)[O-]: 6.48 µM (active)

Data request, read-out AC50, for CCC(=O)Nc1ccc(Cl)c(Cl)c1
inactive
